Molecular target: T1, IL10Rα and IL2Rγ on human primary cells (CD8 T cells, CD4 T cells, monocytes) (human) (UniProt Q13651)
T1 sequence (looked up) 1: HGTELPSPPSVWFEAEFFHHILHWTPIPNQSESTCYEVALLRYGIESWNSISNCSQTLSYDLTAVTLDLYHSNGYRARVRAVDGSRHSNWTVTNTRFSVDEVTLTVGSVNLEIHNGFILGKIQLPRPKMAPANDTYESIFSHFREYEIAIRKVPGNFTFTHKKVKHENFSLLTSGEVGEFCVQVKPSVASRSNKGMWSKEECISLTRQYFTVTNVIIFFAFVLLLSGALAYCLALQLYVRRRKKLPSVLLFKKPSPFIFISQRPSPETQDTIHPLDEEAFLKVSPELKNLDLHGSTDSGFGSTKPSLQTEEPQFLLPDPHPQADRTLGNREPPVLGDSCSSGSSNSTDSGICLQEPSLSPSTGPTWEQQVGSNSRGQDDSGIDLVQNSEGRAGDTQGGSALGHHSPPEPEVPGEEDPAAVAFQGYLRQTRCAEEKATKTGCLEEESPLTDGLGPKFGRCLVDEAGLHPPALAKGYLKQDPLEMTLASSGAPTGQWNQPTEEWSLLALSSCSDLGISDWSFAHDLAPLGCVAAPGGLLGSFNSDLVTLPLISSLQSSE
T1 sequence (looked up) 2: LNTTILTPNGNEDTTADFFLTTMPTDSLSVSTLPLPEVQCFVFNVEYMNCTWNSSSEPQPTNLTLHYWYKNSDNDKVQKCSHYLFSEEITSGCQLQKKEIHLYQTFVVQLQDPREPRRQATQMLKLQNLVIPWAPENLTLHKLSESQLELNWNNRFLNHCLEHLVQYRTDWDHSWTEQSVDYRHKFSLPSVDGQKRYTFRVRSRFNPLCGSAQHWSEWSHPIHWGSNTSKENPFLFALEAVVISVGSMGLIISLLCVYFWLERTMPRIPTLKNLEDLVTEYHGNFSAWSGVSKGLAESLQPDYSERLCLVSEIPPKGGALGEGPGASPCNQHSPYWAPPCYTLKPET
Test: cell-based or functional assay
experimental endpoint: pSTAT3 (MFI) in CD4 T cells at 0.0001 µM

1. hIL10Ra_VHH14-hIL2Rg_VHH19, linker GGGS, tag Fc (Fc fusion, not shown: a dimerising Fc or GST) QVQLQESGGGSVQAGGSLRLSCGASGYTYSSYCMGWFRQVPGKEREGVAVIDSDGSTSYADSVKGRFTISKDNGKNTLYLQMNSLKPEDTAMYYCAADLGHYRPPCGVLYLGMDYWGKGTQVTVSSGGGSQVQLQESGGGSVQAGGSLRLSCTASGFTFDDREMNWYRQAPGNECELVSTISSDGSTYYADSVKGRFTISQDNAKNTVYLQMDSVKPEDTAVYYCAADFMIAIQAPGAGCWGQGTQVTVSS; 12600
